- Tested System: 5-lipoxygenase (Rattus norvegicus)
- Construct: The supernatant, aliquoted and stored at -70° C., was used as the source of 5-lipoxygenase activity; endogenous in cells; host or cells: Rat basophilic leukemia (RBL) cells, 10,000×g supernatant of the sonicate (crude, not purified)
- Sequence (P12527 1-673): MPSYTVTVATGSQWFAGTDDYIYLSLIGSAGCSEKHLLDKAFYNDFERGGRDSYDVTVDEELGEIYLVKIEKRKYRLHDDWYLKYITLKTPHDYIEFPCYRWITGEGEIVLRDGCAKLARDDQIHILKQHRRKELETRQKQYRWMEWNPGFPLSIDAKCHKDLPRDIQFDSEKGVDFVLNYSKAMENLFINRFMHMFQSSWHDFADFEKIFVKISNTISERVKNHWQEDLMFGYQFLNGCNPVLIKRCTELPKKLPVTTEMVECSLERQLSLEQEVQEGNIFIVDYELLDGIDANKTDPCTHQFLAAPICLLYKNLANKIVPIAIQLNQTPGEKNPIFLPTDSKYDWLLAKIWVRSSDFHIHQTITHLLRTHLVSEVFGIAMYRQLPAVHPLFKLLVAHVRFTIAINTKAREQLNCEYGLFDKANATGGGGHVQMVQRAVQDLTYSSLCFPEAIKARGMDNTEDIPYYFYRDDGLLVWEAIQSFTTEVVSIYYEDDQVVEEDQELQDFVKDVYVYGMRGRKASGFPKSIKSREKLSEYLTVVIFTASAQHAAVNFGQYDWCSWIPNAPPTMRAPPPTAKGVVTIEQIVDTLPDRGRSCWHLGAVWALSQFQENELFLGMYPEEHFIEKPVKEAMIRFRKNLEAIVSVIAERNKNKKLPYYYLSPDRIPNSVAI
- Experimental Protocol: Arachidonate 5-lipoxygenase inhibition in Rat Basophilic Leukemia Cells Supernatant
- Type: biochemical
- Set-up: dose or concentration left out as unconfirmed
- Settings: Column A; 5-HPETE and LTB4 formation; read-out: 5-lipoxygenase inhibition in RBL cells supernatant, % inhibition
1 (yes) means recorded inhibition is 90% or above; 0 (no) means it is below 90%.

Please review the following examples before continuing.
                                   compound                       tested_system  answer_label
0  Cc1nn(CC(C)C)c(=O)n1-c1ccc(N2CCN(c3ccc(O)cc3)CC2)cc1  5-lipoxygenase (Rattus norvegicus)        0 (no)
1  CCC(C)n1ncn(-c2ccc(N3CCN(c4ccc(O)cc4)CC3)c(Br)c2)c1=O (centres unmarked)  5-lipoxygenase (Rattus norvegicus)       1 (yes)
2  CCCCn1c(=O)cnn(-c2ccc(N3CCN(c4ccc(O)cc4)CC3)cc2)c1=O  5-lipoxygenase (Rattus norvegicus)        0 (no)
3  O=c1n(-c2ccc(N3CCN(c4ccc(O)cc4)CC3)cc2)cnn1CC(F)(F)F  5-lipoxygenase (Rattus norvegicus)        0 (no)
4  Cc1cc(N2CCN(c3ccc(-n4c(C)nn(C(C)C(=O)c5ccc(Br)cc5)c4=O)cc3)CC2)cc(C)c1O (centres unmarked)  5-lipoxygenase (Rattus norvegicus)       1 (yes)

QUERY: Has O=C1CCCCC1n1ncn(-c2ccc(N3CCN(c4ccc(O)cc4)CC3)cc2)c1=O (centres unmarked) a recorded inhibition greater than or equal to 90%?
RESULT: 0 (no)

QUERY: Determine whether this compound has inhibition no lower than 90%: CC(C(=O)c1ccc(Cl)cc1)n1ncn(-c2ccc(N3CCN(c4ccc(O)cc4)CC3)cc2)c1=O (centres unmarked)
RESULT: 0 (no)
